- Tested on: HCC1143
- Condition Set: 72 h
Quantity: EC50, CellTiter-Glo (nM)
Lab book: enter the figure in nM, no units written.

Problem: Report EC50, CellTiter-Glo for CCS(=O)(=O)c1cccc(-c2cc(C(=O)NC3CCN(C)CC3)c(C)c3[nH]c4ncc(C)cc4c23)c1 please.
Result: 130

Problem: Report EC50, CellTiter-Glo for COC(=O)C[C@](O)(CCCC(C)(C)O)C(=O)O[C@@H]1C(OC)=C[C@]23CCCN2CCc2cc4c(cc2[C@H]13)OCO4 please.
Result: 80.6

Problem: Report EC50, CellTiter-Glo for C[C@@]1(C(=O)Nc2ccc(F)nc2)CCCN1c1nc(Nc2cc(C3CC3)n[nH]2)c2cccn2n1 please.
Result: 4150

Problem: Report EC50, CellTiter-Glo for CC(=O)O[C@H]1C(=O)[C@@]2(C)[C@H]([C@H](OC(=O)c3ccccc3)[C@]3(O)C[C@H](OC(=O)[C@H](O)[C@@H](NC(=O)c4ccccc4)c4ccccc4)C(C)=C1C3(C)C)[C@]1(OC(C)=O)CO[C@@H]1C[C@@H]2O please.
Result: 3.37

Problem: Report EC50, CellTiter-Glo for COc1cccc2c1C(=O)c1c(O)c3c(c(O)c1C2=O)C[C@@](O)(C(C)=O)C[C@@H]3O[C@H]1C[C@H](N)[C@H](O)[C@H](C)O1 please.
Result: 535

----------
- Tested on: BT-549
- Protocol Notes: normalised response (% of control), CellTox Green; higher = less cell death (100 = DMSO, 0 = benzethonium chloride kill control)
- Condition Set: incubation time: 72 h
Quantity: normalised response (%)
Lab book: enter the figure in %, no units written.

Problem: Report normalised response for FC(F)c1nc2ccccc2n1-c1nc(N2CCOCC2)nc(N2CCOCC2)n1 [ZSTK474] (1000 nM) please.
Result: 95.5

Problem: Report normalised response for CN(c1ccccc1CNc1nc(Nc2ccc3c(c2)CC(=O)N3)ncc1C(F)(F)F)S(C)(=O)=O (1000 nM) please.
Result: 116

Problem: Report normalised response for CC(C)C[C@H](NC(=O)[C@H](Cc1ccccc1)NC(=O)c1cnccn1)B(O)O [Bortezomib] (1000 nM) please.
Result: 43.7

Problem: Report normalised response for Cc1cc(C(C)Nc2ccccc2)c2nc(N3CCOCC3)cc(=O)n2c1 (centres undefined) [TGX-221] (100 nM) please.
Result: 92.5

Problem: Report normalised response for C[C@@H]1C=C2C(=O)O[C@@H]3CC[C@H](C1)[C@]23O [Galiellalactone] (50000 nM) please.
Result: 98.7

Problem: Report normalised response for Cn1c(=O)c(F)c(Nc2ccc(I)cc2F)c2c(=O)n(C[C@@H](O)CO)cnc21 [TAK-733] (1000 nM) please.
Result: 119

Problem: Report normalised response for C[C@@H]1C=C2C(=O)O[C@@H]3CC[C@H](C1)[C@]23O [Galiellalactone] (5000 nM) please.
Result: 117

Problem: Report normalised response for COC1=C2C[C@@H](C)C[C@H](OC)[C@H](O)[C@@H](C)/C=C(\C)[C@H](OC(N)=O)[C@@H](OC)/C=C\C=C(/C)C(=O)NC(=CC1=O)C2=O [Geldanamycin] (10000 nM) please.
Result: 99

Problem: Report normalised response for O=C(c1ccc(OCCN2CCCCC2)cc1)c1c(-c2ccc(O)cc2)sc2cc(O)ccc12 [Raloxifene] (1000 nM) please.
Result: 106

Problem: Report normalised response for CC(=O)O[C@H]1C(=O)[C@@]2(C)[C@H]([C@H](OC(=O)c3ccccc3)[C@]3(O)C[C@H](OC(=O)[C@H](O)[C@@H](NC(=O)c4ccccc4)c4ccccc4)C(C)=C1C3(C)C)[C@]1(OC(C)=O)CO[C@@H]1C[C@@H]2O [Paclitaxel] (1000 nM) please.
Result: 56.5

Problem: Report normalised response for CS(=O)(=O)CCNCc1ccc(-c2ccc3ncnc(Nc4ccc(OCc5cccc(F)c5)c(Cl)c4)c3c2)o1 [Lapatinib] (1000 nM) please.
Result: 93.4

Problem: Report normalised response for C[C@@H]1C=C2C(=O)O[C@@H]3CC[C@H](C1)[C@]23O [Galiellalactone] (500 nM) please.
Result: 89.4

Problem: Report normalised response for O=c1[nH]cc(F)c(=O)[nH]1 [Fluorouracil] (100 nM) please.
Result: 96.8

Problem: Report normalised response for CCS(=O)(=O)c1cccc(-c2cc(C(=O)NC3CCN(C)CC3)c(C)c3[nH]c4ncc(C)cc4c23)c1 [TAK-901] (10 nM) please.
Result: 72.2

Data origin: the supplement of paper PMC4862054
